Tested on: cell migration induced by MCP-1 in human promonocytic leukemia cell line, THP-1
Assay Explanation: Activity for inhibiting cell migration induced by MCP-1 (THP-1 cells)
Format: cell-based
Settings: 20 ng/ml recombinant human MCP-1, 37° C., two hours
Measurement Type: IC50 (µM)

These recorded examples may help you get a feel for the data.
Exercise: Quick check: IC50 of CCCC(=O)OC1=C(SCCCCCC(=O)OC)[C@@H](/C=C/C(O)Cc2ccc(C)cc2)[C@H](O)C1 (stereo partly shown) [drawing 149] ?
Solution: 0.1

Exercise: Also CCCC(=O)OC1=C(SCCCCCC(=O)OC)[C@@H](/C=C/C(O)Cc2ccsc2)[C@H](O)C1 (stereo partly shown) [drawing 151] , if possible.
Solution: 0.09

P = CCCC(=O)OC1=C(SCCCCCC(=O)OC)[C@@H](/C=C/C(O)C(c2ccccc2)c2ccccc2)[C@H](O)C1 (stereo partly shown) [drawing 142]
Q = CCCC(=O)OC1=C(CCCCCCC(=O)OC)[C@@H](/C=C/C(O)Cc2ccccc2)[C@H](O)C1 (stereo partly shown) [drawing 168]
Exercise: Returns: the label, P or Q , whose recorded IC50 is the lower number. Output the label that corresponds to your choice.
Solution: Q
(Q: 0.005 µM, P: 1.3 µM)
